Target: ACAT2 (Homo sapiens)
Sequence (O75908 whole entry): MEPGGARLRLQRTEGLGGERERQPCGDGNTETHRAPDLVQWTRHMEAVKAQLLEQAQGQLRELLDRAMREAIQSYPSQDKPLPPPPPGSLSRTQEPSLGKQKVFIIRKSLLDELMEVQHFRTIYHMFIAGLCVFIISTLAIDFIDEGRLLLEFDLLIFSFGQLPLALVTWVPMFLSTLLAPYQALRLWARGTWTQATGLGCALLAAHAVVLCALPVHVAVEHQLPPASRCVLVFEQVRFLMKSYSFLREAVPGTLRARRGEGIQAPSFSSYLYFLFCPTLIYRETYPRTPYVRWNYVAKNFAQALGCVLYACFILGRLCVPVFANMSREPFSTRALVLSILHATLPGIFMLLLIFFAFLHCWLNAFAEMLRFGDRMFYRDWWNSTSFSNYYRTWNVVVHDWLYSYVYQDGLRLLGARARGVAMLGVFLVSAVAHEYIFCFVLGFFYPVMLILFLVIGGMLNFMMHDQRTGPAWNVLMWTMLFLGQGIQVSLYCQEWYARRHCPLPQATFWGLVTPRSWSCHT
endpoint: IC50 (nM)
Give a bare numeral; the unit nM is implied.

## Task Need IC50, item CC(C)c1cccc(C(C)C)c1NC(=O)NCC1(c2ccc(N(C)C)cc2)CCCC1
## Result 710
